# reported pEC50; entries follow
# assayed_system: Neuropeptide Y receptor type 2 (Homo sapiens)
# Sequence (P49146 whole entry): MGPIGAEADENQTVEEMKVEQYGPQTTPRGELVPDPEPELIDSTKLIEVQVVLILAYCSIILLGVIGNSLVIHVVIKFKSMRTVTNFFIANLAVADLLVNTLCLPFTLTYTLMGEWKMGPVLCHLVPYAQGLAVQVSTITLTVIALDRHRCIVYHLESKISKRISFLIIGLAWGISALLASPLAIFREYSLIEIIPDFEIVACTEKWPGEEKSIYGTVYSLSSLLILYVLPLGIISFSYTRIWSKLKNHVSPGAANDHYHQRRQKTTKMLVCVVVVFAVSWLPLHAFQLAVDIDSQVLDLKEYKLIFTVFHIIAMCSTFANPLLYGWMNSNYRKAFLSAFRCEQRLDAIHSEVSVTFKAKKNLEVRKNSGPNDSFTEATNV
# test_protocol: Agonist activity at human Y2R expressed in CHO cell membranes assessed as [35S]GTPgammaS binding after 120 mins by liquid scintillation method
pEC50: −log10 of the molar value. Where a SMILES comes first, the peptide text is derived from it. [ ]: non-standard residue; d: D form. The star is where a group is joined. ξ: configuration not given here. ξCha = NC(CC1CCCCC1)C(=O)O; Aib = CC(C)(N)C(=O)O; Bz = O=C(c1ccccc1)*; ξAbu = CCC(N)C(=O)O

{"molecule": "CCC(NC(=O)[C@H](CCCNC(=N)N)NC(=O)[C@H](CC(C)C)NC(=O)[C@H](CO)NC(=O)[C@H](C)N)C(=O)NC(CC1CCCCC1)C(=O)NC(CC1CCCCC1)C(=O)N[C@@H](CC(N)=O)C(=O)N[C@@H](CC(C)C)C(=O)NC(C)(C)C(=O)N[C@H](C(=O)N[C@@H](CCCNC(=N)N)C(=O)N[C@@H](CCC(N)=O)C(=O)N[C@@H](CCCNC(=N)N)C(=O)NC(CC1CCCCC1)C(N)=O)[C@@H](C)O (stereo not given in full) (H-ASLR[ξAbu][ξCha][ξCha]NL[Aib]TRQR[ξCha]-NH2)", "pEC50": 8.60}
{"molecule": "CC(C)C[C@H](NC(=O)[C@H](CC(N)=O)NC(=O)C(CC1CCCCC1)NC(=O)C(CC1CCCCC1)NC(=O)[C@H](Cc1cnc[nH]1)NC(=O)[C@H](CCCNC(=N)N)NC(=O)c1ccccc1)C(=O)NC(C)(C)C(=O)N[C@H](C(=O)N[C@@H](CCCNC(=N)N)C(=O)N[C@@H](CCC(N)=O)C(=O)N[C@@H](CCCNC(=N)N)C(=O)NC(CC1CCCCC1)C(N)=O)[C@@H](C)O (stereo not given in full) (Bz-RH[ξCha][ξCha]NL[Aib]TRQR[ξCha]-NH2)", "pEC50": 8.70}
{"molecule": "CCC(NC(=O)[C@H](CCCNC(=N)N)NC(=O)[C@H](CC(C)C)NC(=O)[C@H](CO)NC(=O)[C@H](C)NC(C)=O)C(=O)NC(CC1CCCCC1)C(=O)NC(CC1CCCCC1)C(=O)N[C@@H](CC(N)=O)C(=O)N[C@@H](CC(C)C)C(=O)NC(C)(C)C(=O)N[C@H](C(=O)N[C@@H](CCCNC(=N)N)C(=O)N[C@@H](CCC(N)=O)C(=O)N[C@@H](CCCNC(=N)N)C(=O)NC(CC1CCCCC1)C(N)=O)[C@@H](C)O (stereo not given in full) (Ac-ASLR[ξAbu][ξCha][ξCha]NL[Aib]TRQR[ξCha]-NH2)", "pEC50": 8.34}
{"molecule": "CC(=O)N[C@@H](CO)C(=O)NCC(=O)N[C@@H](CCCNC(=N)N)C(=O)N[C@@H](Cc1cnc[nH]1)C(=O)NC(CC1CCCCC1)C(=O)NC(CC1CCCCC1)C(=O)N[C@@H](CC(N)=O)C(=O)N[C@@H](CC(C)C)C(=O)NC(C)(C)C(=O)N[C@H](C(=O)N[C@@H](CCCNC(=N)N)C(=O)N[C@@H](CCC(N)=O)C(=O)N[C@@H](CCCNC(=N)N)C(=O)NC(CC1CCCCC1)C(N)=O)[C@@H](C)O (stereo not given in full) (Ac-SGRH[ξCha][ξCha]NL[Aib]TRQR[ξCha]-NH2)", "pEC50": 8.89}
{"molecule": "CCC(NC(=O)[C@H](CCCNC(=N)N)NC(=O)[C@@H](CC(C)C)NC(=O)[C@@H](CO)NC(C)=O)C(=O)NC(CC1CCCCC1)C(=O)NC(CC1CCCCC1)C(=O)N[C@@H](CC(N)=O)C(=O)N[C@@H](CC(C)C)C(=O)NC(C)(C)C(=O)N[C@H](C(=O)N[C@@H](CCCNC(=N)N)C(=O)N[C@@H](CCC(N)=O)C(=O)N[C@@H](CCCNC(=N)N)C(=O)NC(CC1CCCCC1)C(N)=O)[C@@H](C)O (stereo not given in full)", "pEC50": 8.42}
